- assayed system: AtGPA1 (Arabidopsis thaliana, UniProt P18064)
- Sequence (P18064 whole entry): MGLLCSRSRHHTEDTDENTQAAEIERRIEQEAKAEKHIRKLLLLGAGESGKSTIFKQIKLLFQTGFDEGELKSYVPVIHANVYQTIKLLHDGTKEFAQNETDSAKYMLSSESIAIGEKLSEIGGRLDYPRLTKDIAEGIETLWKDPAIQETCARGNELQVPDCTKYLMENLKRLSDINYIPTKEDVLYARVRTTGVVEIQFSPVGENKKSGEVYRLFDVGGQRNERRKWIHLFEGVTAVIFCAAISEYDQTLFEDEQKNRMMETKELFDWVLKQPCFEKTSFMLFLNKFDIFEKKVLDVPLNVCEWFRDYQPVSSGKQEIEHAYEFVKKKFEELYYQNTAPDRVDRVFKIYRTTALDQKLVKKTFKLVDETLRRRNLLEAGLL
- assay procedure: GTPγS saturation binding analysis of AtGPA1 (photocurrent and fluorescence)
- particulars: percent of maximum fitted to a hyperbola, preliminary test
measurement type: Kd

QUERY: Respond only with Kd recorded for Nc1nc2c(ncn2[C@@H]2O[C@H](COP(=O)(O)OP(=O)(O)OP(O)(O)=S)[C@@H](O)[C@H]2O)c(=O)[nH]1 [GTPγS]
RESULT: ~1.5 nM
